Below, each of the compounds is paired with its reported Ki value.
# Test System: hUTII (Homo sapiens)
# Sequence (Q9UKP6 whole entry): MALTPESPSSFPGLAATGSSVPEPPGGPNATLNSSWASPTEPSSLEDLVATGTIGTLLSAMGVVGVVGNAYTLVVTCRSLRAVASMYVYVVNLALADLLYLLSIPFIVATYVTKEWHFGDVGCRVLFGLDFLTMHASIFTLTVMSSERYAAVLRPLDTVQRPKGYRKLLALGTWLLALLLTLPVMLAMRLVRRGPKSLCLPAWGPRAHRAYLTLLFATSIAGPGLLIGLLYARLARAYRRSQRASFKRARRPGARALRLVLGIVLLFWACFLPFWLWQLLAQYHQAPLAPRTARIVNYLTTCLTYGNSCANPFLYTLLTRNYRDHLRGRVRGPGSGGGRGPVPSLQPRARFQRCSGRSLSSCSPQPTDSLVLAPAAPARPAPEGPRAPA
# Assay Notes: hUTII inhibition constant
# Type: binding
# Test Conditions: read-out: hUTII Ki
Numbered stars: 1 amine (or outer) side, 2 acyl side, 3 side chain; on linkers, the order of the positions; unused ones are H or OH. Bridge positions count the residues as written; N and C are the ends. Square brackets hold non-standard residues; d marks the D form. Peptide text beside a SMILES is read from it. * marks the point of attachment. X3 = CCCN1C[C@H](CSCC(=O)Oc2ccc(C[C@H](N[*:1])C(=O)[*:2])cc2I)C[C@@H]2c3cccc4[nH]cc(c34)C[C@H]21; X1 = CCCN1C[C@H](CSCC(=O)*)C[C@@H]2c3cccc4[nH]cc(c34)C[C@H]21; X2 = CN1C[C@H](CSCC(=O)*)C[C@@H]2c3cccc4[nH]cc(c34)C[C@H]21; Pipz(1-CH2CO,4-CH2CH2NH) = O=C(CN1CCN(CCN[*:1])CC1)[*:2]; Dopa = N[C@@H](Cc1ccc(O)c(O)c1)C(=O)O; Abu = CC[C@H](N)C(=O)O; AEEA = NCCOCCOCC(=O)O
Measured Parameter: Ki

{"Compound": "CCCN1C[C@H](CSCC(=O)NCCN2CCN(CC(=O)N[C@H](Cc3ccccc3)C(=O)N[C@H]3CSSC[C@@H](C(=O)N[C@H](C(N)=O)[C@@H](C)O)NC(=O)[C@H](C(C)C)NC(=O)[C@H](CCCCN)NC(=O)[C@@H](Cc4c[nH]c5ccccc45)NC(=O)[C@H](Cc4ccc(O)c(I)c4)NC3=O)CC2)C[C@@H]2c3cccc4[nH]cc(c34)C[C@H]21", "Recorded Measurement": "233 nM"}
{"Compound": "CC[C@@H]1NC(=O)[C@H](CCCCN)NC(=O)[C@@H](Cc2c[nH]c3ccccc23)NC(=O)[C@H](Cc2ccc(O)cc2)NC(=O)[C@@H](NC(=O)[C@@H](Cc2ccc(O)cc2)NC(=O)[C@@H](Cc2ccc(O)cc2)NC(=O)[C@H](CCCCN)NC(=O)CN2CCN(CCNC(=O)CSC[C@@H]3C[C@@H]4c5cccc6[nH]cc(c56)C[C@H]4N(C)C3)CC2)CSSC[C@@H](C(=O)N[C@H](C(N)=O)[C@@H](C)O)NC1=O [Example 32] (X2-[Pipz(1-CH2CO,4-CH2CH2NH)]K[dY][dY]CY[dW]K[Abu]CT-NH2; disulfide 5-10)", "Recorded Measurement": "267 nM"}
{"Compound": "CC[C@@H]1NC(=O)[C@H](CCCCN)NC(=O)[C@@H](Cc2c[nH]c3ccccc23)NC(=O)[C@H](Cc2ccc(O)cc2)NC(=O)[C@@H](NC(=O)[C@@H](Cc2ccccc2)NC(=O)[C@H](CCCCNC(=O)[C@@H](N)Cc2ccc(O)c(O)c2)NC(=O)[C@@H](N)Cc2ccc(O)c(O)c2)CSSC[C@@H](C(=O)N[C@H](C(N)=O)[C@@H](C)O)NC1=O [Example 18] (H-[Dopa]K(Dopa)[dF]CY[dW]K[Abu]CT-NH2; disulfide 4-9)", "Recorded Measurement": "1000 nM"}
{"Compound": "CCCN1C[C@H](CSCC(=O)NCCCC[C@H](NC(=O)CSC[C@@H]2C[C@@H]3c4cccc5[nH]cc(c45)C[C@H]3N(CCC)C2)C(=O)N[C@H]2CSSC[C@@H](C(=O)N[C@H](C(N)=O)[C@@H](C)O)NC(=O)[C@H](CC)NC(=O)[C@H](CCCCN)NC(=O)[C@@H](Cc3c[nH]c4ccccc34)NC(=O)[C@H](Cc3ccc(O)cc3)NC2=O)C[C@@H]2c3cccc4[nH]cc(c34)C[C@H]21", "Recorded Measurement": "635 nM"}
{"Compound": "CCCN1C[C@H](CSCC(=O)N[C@H](Cc2ccccc2)C(=O)N[C@H]2CSSC[C@@H](C(=O)N[C@H](C(N)=O)[C@@H](C)O)NC(=O)[C@H](CC)NC(=O)[C@H](CCCCN)NC(=O)[C@@H](Cc3c[nH]c4ccccc34)NC(=O)[C@H](Cc3ccc(O)cc3)NC2=O)C[C@@H]2c3cccc4[nH]cc(c34)C[C@H]21", "Recorded Measurement": "498 nM"}
{"Compound": "CCCN1C[C@H](CSCC(=O)NCCN2CCN(CC(=O)NCCN3CCN(CC(=O)N[C@H](Cc4ccccc4)C(=O)N[C@H]4CSSC[C@@H](C(=O)N[C@H](C(N)=O)[C@@H](C)O)NC(=O)[C@H](C(C)C)NC(=O)[C@H](CCCCN)NC(=O)[C@@H](Cc5c[nH]c6ccccc56)NC(=O)[C@H](Cc5ccc(O)c(I)c5)NC4=O)CC3)CC2)C[C@@H]2c3cccc4[nH]cc(c34)C[C@H]21", "Recorded Measurement": "421 nM"}
{"Compound": "CCCN1C[C@H](CSCC(=O)NCCN2CCN(CC(=O)NCCN3CCN(CC(=O)N[C@H](Cc4ccccc4)C(=O)N[C@H]4CSSC[C@@H](C(=O)N[C@H](C(N)=O)[C@@H](C)O)NC(=O)[C@H](CC)NC(=O)[C@H](CCCCN)NC(=O)[C@@H](Cc5c[nH]c6ccccc56)NC(=O)[C@H](Cc5ccc(O)cc5)NC4=O)CC3)CC2)C[C@@H]2c3cccc4[nH]cc(c34)C[C@H]21 [Example 36] (X1-[Pipz(1-CH2CO,4-CH2CH2NH)][Pipz(1-CH2CO,4-CH2CH2NH)][dF]CY[dW]K[Abu]CT-NH2; disulfide 4-9)", "Recorded Measurement": "3090 nM"}
{"Compound": "CC[C@@H]1NC(=O)[C@H](CCCCN)NC(=O)[C@@H](Cc2c[nH]c3ccccc23)NC(=O)[C@H](Cc2ccc(O)cc2)NC(=O)[C@@H](NC(=O)[C@@H](Cc2ccc(O)cc2)NC(=O)[C@@H](Cc2ccc(O)cc2)NC(=O)[C@H](CCCCN)NC(=O)COCCOCCNC(=O)CSC[C@@H]2C[C@@H]3c4cccc5[nH]cc(c45)C[C@H]3N(C)C2)CSSC[C@@H](C(=O)N[C@H](C(N)=O)[C@@H](C)O)NC1=O [Example 34] ({X2-AEEA}-K[dY][dY]CY[dW]K[Abu]CT-NH2; disulfide 4-9)", "Recorded Measurement": "211 nM"}
{"Compound": "CC(C)[C@@H]1NC(=O)[C@H](CCCCN)NC(=O)[C@@H](Cc2c[nH]c3ccccc23)NC(=O)[C@H](Cc2ccc(O)c(I)c2)NC(=O)[C@@H](NC(=O)[C@@H](Cc2ccccc2)NC(=O)CN2CCN(CCNC(=O)CN3CCN(CCNC(=O)CSC[C@@H]4C[C@@H]5c6cccc7[nH]cc(c67)C[C@H]5N(C)C4)CC3)CC2)CSSC[C@@H](C(=O)N[C@H](C(N)=O)[C@@H](C)O)NC1=O", "Recorded Measurement": "241 nM"}
{"Compound": "CCCN1C[C@H](CSCC(=O)N[C@H](Cc2ccccc2)C(=O)NCCOCCOCC(=O)N[C@H](Cc2ccccc2)C(=O)N[C@H]2CSSC[C@@H](C(=O)N[C@H](C(N)=O)[C@@H](C)O)NC(=O)[C@H](C(C)C)NC(=O)[C@H](CCCCN)NC(=O)[C@@H](Cc3c[nH]c4ccccc34)NC(=O)[C@H](Cc3ccc(OC(=O)CSC[C@@H]4C[C@@H]5c6cccc7[nH]cc(c67)C[C@H]5N(CCC)C4)c(I)c3)NC2=O)C[C@@H]2c3cccc4[nH]cc(c34)C[C@H]21 [Example 5] (X1-[dF][AEEA][dF]C[X3][dW]KVCT-NH2; disulfide 4-9)", "Recorded Measurement": "105 nM"}

The origin of these recorded values is patent US20110065632A1.
